- Test system: DIV30
- ASSAY NAME: qHTS profiling for inhibitors of Plasmodium falciparum proliferation (AID 504749); note: nearly all actives have a fitted effect of over 60% in size; note: potency is the fitted concentration of half-maximal effect
- ASSAY CONDITIONS: P. falciparum in erythrocytes, SYBR Green DNA, 72 h; series mostly up to 28.7 µM
Records with an inconclusive call do not appear. Active and inactive are the calls of the source. Calls come from the whole dose curve; as a rule, active = well fitted inhibition curve with a large enough effect; inconclusive = small, poorly fitted or top-dose-only effect; inactive = flat fitted curve, though single readings scatter.
QUANTITY KIND: Potency

[[record]]
molecule = "NC(=O)OCCCc1ccccc1"
system = "DIV30"
result = "inactive"

[[record]]
molecule = "CNC(=O)NC(O)C(Cl)(Cl)Cl (stereo not drawn)"
system = "DIV30"
result = "inactive"

[[record]]
molecule = "CCNc1nc(Cl)nc(NCC)n1"
system = "DIV30"
result = "inactive"

[[record]]
molecule = "Cc1ccc(N=CN(C)C=Nc2ccc(C)cc2C)c(C)c1"
system = "DIV30"
result = "inactive"

[[record]]
molecule = "NC(=O)CN1CCCC1=O"
system = "DIV30"
result = "inactive"

[[record]]
molecule = "Clc1ccc(CO/N=C(\\Cn2ccnc2)c2ccc(Cl)cc2Cl)c(Cl)c1"
system = "DIV30"
result = "3380 nM (active)"

[[record]]
molecule = "C[N+](C)(C)CCOC(=O)C(O)(c1ccccc1)c1ccccc1"
system = "DIV30"
result = "inactive"

[[record]]
molecule = "CCS(=O)(=O)C(C)(C)S(=O)(=O)CC"
system = "DIV30"
result = "inactive"

[[record]]
molecule = "ClC1=C(Cl)C2(Cl)C(CBr)CC1(Cl)C2(Cl)Cl (stereo not drawn)"
system = "DIV30"
result = "inactive"

[[record]]
molecule = "COC(=O)C1=CCCN(C)C1"
system = "DIV30"
result = "inactive"

[[record]]
molecule = "Oc1c(Br)cc(Br)cc1Br"
system = "DIV30"
result = "inactive"

[[record]]
molecule = "O=C(CCCN1CCC(n2c(=O)[nH]c3ccccc32)CC1)c1ccc(F)cc1"
system = "DIV30"
result = "2560 nM (active)"

[[record]]
molecule = "COCC(=O)N(c1c(C)cccc1C)C(C)C(=O)OC (stereo not drawn)"
system = "DIV30"
result = "inactive"


====

- System: WaGa
- ASSAY NAME: qHTS assay to identify novel small-molecules to repurpose for Merkel cell carcinoma treatment (AID 1296009); note: nearly all actives have a fitted effect of over 60% in size
- ASSAY CONDITIONS: MCC and control cell lines, CellTiter-Glo viability, 72 h; series mostly up to 46 µM
Results filed as inconclusive are left out. Calls of active or inactive are those of the source. The call rests on the fitted dose curve; in most records, active means well fitted inhibition curve with a large enough effect; inconclusive means small, poorly fitted or top-dose-only effect; inactive means flat fitted curve, though single readings scatter.
Classes used: active, inactive

[[record]]
compound = "CCc1ccc(C2CCNCC2)cc1"
assigned_category = "inactive"

[[record]]
compound = "C[C@@H]1O[C@@H](O[C@@H]2C=C3CC[C@@H]4[C@H](CC[C@]5(C)[C@@H](c6ccc(=O)oc6)CC[C@]45O)[C@@]3(C)CC2)[C@H](O)[C@H](O)[C@H]1O"
assigned_category = "active"

[[record]]
compound = "CC(CC(C(N)=O)(c1ccccc1)c1ccccc1)N(C)C (stereo not given)"
assigned_category = "inactive"

[[record]]
compound = "CC(C)(C)OC(=O)c1ncn2c1[C@@H]1CCCN1C(=O)c1c(Br)cccc1-2"
assigned_category = "inactive"

[[record]]
compound = "CC[C@H]1C[C@@H]2C[C@H]3c4[nH]c5ccc(OC)cc5c4CCN(C2)[C@@H]13"
assigned_category = "active"

[[record]]
compound = "C[N+]1(C)[C@@H]2CC[C@H]1CC(OC(=O)C(CO)c1ccccc1)C2 (stereo not given in full)"
assigned_category = "inactive"

[[record]]
compound = "C[C@]12Cc3nonc3C[C@@H]1CC[C@@H]1[C@@H]2CC[C@@]2(C)[C@H]1CC[C@]2(C)O"
assigned_category = "active"

[[record]]
compound = "CCC1(CC)C(=O)NC(=O)NC1=O"
assigned_category = "inactive"

[[record]]
compound = "CC(Cc1ccc2c(c1)OCO2)NO (stereo not given)"
assigned_category = "inactive"

[[record]]
compound = "C=CCOC(Cn1ccnc1)c1ccc(Cl)cc1Cl (stereo not given)"
assigned_category = "inactive"

